Target: Nuclear receptor ROR-gamma (Homo sapiens, UniProt P51449)
Sequence (P51449 whole entry, the tested form may be a part): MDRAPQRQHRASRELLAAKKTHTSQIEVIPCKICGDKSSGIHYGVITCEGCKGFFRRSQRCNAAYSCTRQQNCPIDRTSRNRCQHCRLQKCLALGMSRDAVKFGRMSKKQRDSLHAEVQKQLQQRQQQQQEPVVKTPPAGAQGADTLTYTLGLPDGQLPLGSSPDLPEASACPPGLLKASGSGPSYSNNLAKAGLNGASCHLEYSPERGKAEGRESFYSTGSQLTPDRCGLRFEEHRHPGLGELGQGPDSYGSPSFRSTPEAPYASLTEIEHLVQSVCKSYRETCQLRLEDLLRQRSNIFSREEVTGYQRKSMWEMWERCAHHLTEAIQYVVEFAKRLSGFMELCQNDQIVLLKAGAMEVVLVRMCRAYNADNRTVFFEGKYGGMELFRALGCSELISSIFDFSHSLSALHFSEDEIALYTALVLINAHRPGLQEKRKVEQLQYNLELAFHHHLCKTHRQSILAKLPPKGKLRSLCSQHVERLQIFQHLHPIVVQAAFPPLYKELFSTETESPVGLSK
Experiment: Agonist activity at His tagged RORgammat LBD (unknown origin) expressed in baculovirus infected sf9 cells assessed as biotinylated-LXXLL peptide coactivator recruitment incubated for overnight by TR-FRET Assay
READOUT NAME: EC50

Could you please provide reported EC50 for C[C@H]1CN(S(=O)(=O)c2cccc(C(F)(F)F)c2)c2nc(COc3c(F)cccc3Cl)ccc2O1 ? Thanks!
< 500 nM

----------
Target: Nuclear receptor ROR-gamma (Homo sapiens)
Assay: Agonist activity at His tagged human RORgammat LBD (unknown origin) expressed in baculovirus infected sf9 cells assessed as biotinylated-LXXLL peptide coactivator recruitment at <0.5 uM incubated for overnight by TR-FRET Assay relative to control
Entries and their measured Activity follow.

In [3]: df
Out[3]:
                                   molecule                                    target  readout_name  result
0  COc1c(Cl)cccc1-c1ccc2c(c1)N(S(=O)(=O)c1cccc(C(F)(F)F)c1)C[C@H](CCC(=O)O)O2  Nuclear receptor ROR-gamma (Homo sapiens)      Activity  > 200%
1  CCN(c1cccc(OCc2c(Cl)cccc2Cl)c1)S(=O)(=O)c1cccc(C(F)(F)F)c1  Nuclear receptor ROR-gamma (Homo sapiens)      Activity  > 200%
2  O=C(O)C1Cc2ccc(OCc3c(F)cccc3Cl)cc2N(S(=O)(=O)c2cccc(C(F)(F)F)c2)C1 (centres undefined)  Nuclear receptor ROR-gamma (Homo sapiens)      Activity  > 200%

Turning now to a further molecule:
Could you please provide reported Activity for C/C(=C\c1ccc2c(c1)N(S(=O)(=O)c1cccc(C(F)(F)F)c1)C[C@H](CCc1nn[nH]n1)O2)c1c(F)cccc1Cl ? Thanks!
> 200%

// provenance: ChEMBL document CHEMBL4130622
